Data provenance: ChEMBL document CHEMBL1136016

target: Adenosine receptor A2a (Homo sapiens)
assay.details: Displacement of [3H]SCH-58261 from human Adenosine A2A receptor expressed in HEK293 cells; range 25-40
Type: cell-based
endpoint.name: Ki (nM)
Use nM as the unit, but write only the number.

Name the reported Ki value associated with the compound `CCCCn1cc2c(nc(NC(=O)Nc3ccc(C(F)(F)F)cc3)n3nc(-c4ccco4)nc23)n1`
31

====

target: Adenosine receptor A1 (Homo sapiens, UniProt P30542)
assay.details: Displacement of [3H]DPCPX from human Adenosine A1 receptor expressed in CHO cells; range 598-838
Format: cell-based
endpoint.name: Ki (nM)
Use nM as the unit, but write only the number.

Name the reported Ki value associated with the compound `CCCCn1cc2c(nc(NC(=O)Nc3ccc(Cl)c(Cl)c3)n3nc(-c4ccco4)nc23)n1`
708

====

target: Adenosine receptor A2a (Homo sapiens, UniProt P29274)
Sequence (P29274 whole entry): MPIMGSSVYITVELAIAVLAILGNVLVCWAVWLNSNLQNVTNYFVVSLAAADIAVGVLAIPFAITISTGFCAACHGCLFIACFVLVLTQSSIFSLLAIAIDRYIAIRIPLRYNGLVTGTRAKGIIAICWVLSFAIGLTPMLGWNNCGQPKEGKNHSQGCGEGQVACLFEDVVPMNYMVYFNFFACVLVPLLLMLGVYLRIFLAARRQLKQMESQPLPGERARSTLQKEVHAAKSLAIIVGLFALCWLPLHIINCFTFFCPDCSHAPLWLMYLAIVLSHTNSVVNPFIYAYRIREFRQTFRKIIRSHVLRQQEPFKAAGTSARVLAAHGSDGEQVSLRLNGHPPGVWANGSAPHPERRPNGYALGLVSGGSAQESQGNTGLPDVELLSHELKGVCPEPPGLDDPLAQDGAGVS
assay.details: Displacement of [3H]SCH-58261 from human Adenosine A2A receptor expressed in HEK293 cells
Format: cell-based
endpoint.name: pKi
pKi here is simply -log10 of the concentration when that concentration is written in mol/L.

Requested read-out pKi, target or system Adenosine receptor A2a (Homo sapiens, UniProt P29274), entry `Cn1cc2c(nc(NC(=O)Nc3ccc(S(=O)(=O)O)cc3)n3nc(-c4ccco4)nc23)n1`
6.23

====

target: UniProt P0DMS8
Sequence (P0DMS8 whole entry): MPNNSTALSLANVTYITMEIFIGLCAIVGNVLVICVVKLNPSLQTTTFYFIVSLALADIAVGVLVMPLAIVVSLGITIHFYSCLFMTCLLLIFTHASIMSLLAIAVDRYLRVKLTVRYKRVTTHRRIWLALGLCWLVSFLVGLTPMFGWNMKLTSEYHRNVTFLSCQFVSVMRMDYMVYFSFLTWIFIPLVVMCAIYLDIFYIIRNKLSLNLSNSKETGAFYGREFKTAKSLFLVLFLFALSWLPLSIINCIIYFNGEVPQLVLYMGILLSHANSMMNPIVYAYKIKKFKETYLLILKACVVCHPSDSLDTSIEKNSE
assay.details: Displacement of [3H]MRE3008-F20 from human Adenosine A3 receptor expressed in HEK cells; range 0.23-0.40
Type: cell-based, HEK293
endpoint.name: Ki (nM)
Use nM as the unit, but write only the number.

Name the reported Ki value associated with the molecule `CCn1cc2c(nc(NC(=O)Nc3ccccc3Cl)n3nc(-c4ccco4)nc23)n1`
0.3

====

target: Adenosine receptor A2a (Homo sapiens, UniProt P29274)
assay.details: Displacement of [3H]SCH-58261 from human Adenosine A2A receptor expressed in HEK293 cells; range 48-78
Type: cell-based
endpoint.name: pKi
pKi here is simply -log10 of the concentration when that concentration is written in mol/L.

Name the reported pKi value associated with the molecule `CCn1cc2c(nc(NC(=O)Nc3ccc(F)cc3)n3nc(-c4ccco4)nc23)n1`
7.22

====

target: Adenosine receptor A1 (Homo sapiens, UniProt P30542)
Sequence (P30542 whole entry): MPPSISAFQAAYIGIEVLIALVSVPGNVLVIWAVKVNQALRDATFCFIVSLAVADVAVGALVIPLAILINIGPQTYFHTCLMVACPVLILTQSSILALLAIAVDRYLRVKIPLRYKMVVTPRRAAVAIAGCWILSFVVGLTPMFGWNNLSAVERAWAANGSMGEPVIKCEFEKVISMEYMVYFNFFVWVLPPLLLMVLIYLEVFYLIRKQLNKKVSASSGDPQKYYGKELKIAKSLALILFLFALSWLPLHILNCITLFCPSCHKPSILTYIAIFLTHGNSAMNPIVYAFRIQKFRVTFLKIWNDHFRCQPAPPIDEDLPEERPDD
assay.details: Displacement of [3H]DPCPX from human Adenosine A1 receptor expressed in CHO cells; range 358-468
Type: cell-based
endpoint.name: pKi
pKi here is simply -log10 of the concentration when that concentration is written in mol/L.

Requested read-out pKi, target or system Adenosine receptor A1 (Homo sapiens, UniProt P30542), entry `CCCCn1cc2c(nc(NC(=O)Nc3ccccc3)n3nc(-c4ccco4)nc23)n1`
6.39

====

target: Adenosine receptor A1 (Homo sapiens, UniProt P30542)
Sequence (P30542 whole entry): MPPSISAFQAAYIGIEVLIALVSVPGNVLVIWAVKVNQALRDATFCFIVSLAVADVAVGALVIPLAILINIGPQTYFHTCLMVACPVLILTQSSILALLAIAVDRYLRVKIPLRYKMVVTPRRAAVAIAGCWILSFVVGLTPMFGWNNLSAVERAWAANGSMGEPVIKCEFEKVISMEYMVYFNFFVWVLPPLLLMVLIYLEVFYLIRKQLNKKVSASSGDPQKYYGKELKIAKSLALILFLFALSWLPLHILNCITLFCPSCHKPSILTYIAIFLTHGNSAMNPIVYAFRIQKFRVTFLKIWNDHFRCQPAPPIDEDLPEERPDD
assay.details: Displacement of [3H]DPCPX from human Adenosine A1 receptor expressed in CHO cells; range 512-698
Assay type: cell-based
endpoint.name: Ki (µM)
Use µM as the unit, but write only the number.

Name the reported Ki value associated with the molecule `Cn1cc2c(nc(NC(=O)Nc3ccc(Br)cc3)n3nc(-c4ccco4)nc23)n1`
0.6

====

target: Adenosine receptor A2a (Homo sapiens)
assay.details: Displacement of [3H]SCH-58261 from human Adenosine A2A receptor expressed in HEK293 cells; range 114-179
Format: cell-based
endpoint.name: pKi
pKi here is simply -log10 of the concentration when that concentration is written in mol/L.

Name the reported pKi value associated with the compound `Cn1cc2c(nc(NC(=O)Nc3ccc(Cl)c(Cl)c3)n3nc(-c4ccco4)nc23)n1`
6.84

====

target: Adenosine receptors; A1 & A3 (Homo sapiens) (UniProt P30542+P0DMS8)
assay.details: Selectivity ratio (hA1/hA3)
Format: protein assay
Classification by Ratio | ranges: class 1 (below 500), class 2 (500 to below 3000), class 3 (3000 or more)

Take a look at these entries with their results.
smiles_str=CCn1cc2c(nc(NC(=O)Nc3ccccc3OC)n3nc(-c4ccco4)nc23)n1 target="Adenosine receptors; A1 & A3 (Homo sapiens) (UniProt P30542+P0DMS8)" discrete_label="class 2"
smiles_str=CCn1cc2c(nc(NC(=O)Nc3cccc(Cl)c3)n3nc(-c4ccco4)nc23)n1 target="Adenosine receptors; A1 & A3 (Homo sapiens) (UniProt P30542+P0DMS8)" discrete_label="class 1"
smiles_str=Cn1cc2c(nc(NC(=O)Nc3ccc([N+](=O)[O-])cc3)n3nc(-c4ccco4)nc23)n1 target="Adenosine receptors; A1 & A3 (Homo sapiens) (UniProt P30542+P0DMS8)" discrete_label="class 2"
smiles_str=CCn1cc2c(nc(NC(=O)Nc3ccc(Cl)cc3)n3nc(-c4ccco4)nc23)n1 target="Adenosine receptors; A1 & A3 (Homo sapiens) (UniProt P30542+P0DMS8)" discrete_label="class 2"
smiles_str=COc1ccc(NC(=O)Nc2nc3nn(C)cc3c3nc(-c4ccco4)nn23)cc1 target="Adenosine receptors; A1 & A3 (Homo sapiens) (UniProt P30542+P0DMS8)" discrete_label="class 3"
smiles_str=Cn1cc2c(nc(NC(=O)Nc3ccc4c(c3)OCO4)n3nc(-c4ccco4)nc23)n1 target="Adenosine receptors; A1 & A3 (Homo sapiens) (UniProt P30542+P0DMS8)" discrete_label="class 3"
smiles_str=CCn1cc2c(nc(NC(=O)Nc3ccccc3)n3nc(-c4ccco4)nc23)n1 target="Adenosine receptors; A1 & A3 (Homo sapiens) (UniProt P30542+P0DMS8)" discrete_label="class 2"
smiles_str=CCn1cc2c(nc(NC(=O)Nc3ccc(C(F)(F)F)cc3)n3nc(-c4ccco4)nc23)n1 target="Adenosine receptors; A1 & A3 (Homo sapiens) (UniProt P30542+P0DMS8)" discrete_label="class 1"

// bin(item) where item = `CCn1cc2c(nc(NC(=O)Nc3ccccc3Cl)n3nc(-c4ccco4)nc23)n1`
class 2

====

target: Adenosine receptor A3 (Homo sapiens, UniProt P0DMS8)
assay.details: Inhibition of IB-MECA agonist-mediated cAMP production in CHO cell membranes expressing human Adenosine A3 receptor; range 15-44
Type: functional, cell-based
endpoint.name: pIC50
pIC50 here is simply -log10 of the concentration when that concentration is written in mol/L.

Name the reported pIC50 value associated with the compound `Cn1cc2c(nc(NC(=O)Nc3ccc(Cl)c(Cl)c3)n3nc(-c4ccco4)nc23)n1`
7.59

====

target: Adenosine receptor A1 (Homo sapiens, UniProt P30542)
Sequence (P30542 whole entry): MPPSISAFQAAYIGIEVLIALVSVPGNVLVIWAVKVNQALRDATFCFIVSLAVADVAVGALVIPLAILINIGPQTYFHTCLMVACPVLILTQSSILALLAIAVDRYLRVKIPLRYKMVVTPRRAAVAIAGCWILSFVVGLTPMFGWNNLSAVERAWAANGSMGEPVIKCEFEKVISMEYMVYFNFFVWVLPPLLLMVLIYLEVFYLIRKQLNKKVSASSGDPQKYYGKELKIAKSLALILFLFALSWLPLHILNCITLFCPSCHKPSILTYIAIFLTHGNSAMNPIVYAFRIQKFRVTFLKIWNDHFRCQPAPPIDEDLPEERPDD
assay.details: Displacement of [3H]DPCPX from human Adenosine A1 receptor expressed in CHO cells; range 345-465
Format: cell-based
endpoint.name: pKi
pKi here is simply -log10 of the concentration when that concentration is written in mol/L.

Name the reported pKi value associated with the compound `CCn1cc2c(nc(NC(=O)Nc3cccc(OC)c3)n3nc(-c4ccco4)nc23)n1`
6.40
